protocol.summary: Distribution coefficient at pH 7.4
Assay type: physicochemical
condition.info: RP-HPLC, read-out: Log Kw
With a cut-off of 5, any chromatographic logD strictly below it is called true; any chromatographic logD meeting it or above is called false.

// known answers, use as guide
compound	assigned.label
COc1ccccc1COCCCOc1ccc([C@H]2CCNC[C@@H]2OCc2ccc3ccc(=O)[nH]c3c2)cc1 (racemic)	true
c1ccc(COCCCOc2ccc([C@H]3CCNC[C@@H]3OCc3ccc4ccc(OCCN5CCOCC5)cc4c3)cc2)cc1 (racemic)	false
c1ccc(COCCCOc2ncc([C@H]3CCNC[C@@H]3OCc3ccc4ccccc4c3)cn2)cc1 (racemic)	true
COc1ccccc1COCCCOc1ccc([C@H]2CCNC[C@@H]2OCc2cc(OC)c3ccccc3c2OC)cn1 (racemic)	true

Now for another entry.
stdin: Confirm or reject: chromatographic logD of c1ccc(COCCCOc2ccc([C@H]3[C@H](CSc4ccncc4)CNC[C@@H]3OCc3ccc4ccccc4c3)cc2)cc1 (racemic) lies strictly below 5
stdout: false

* * *

tested.target: Renin (Homo sapiens)
Sequence (P00797 whole entry): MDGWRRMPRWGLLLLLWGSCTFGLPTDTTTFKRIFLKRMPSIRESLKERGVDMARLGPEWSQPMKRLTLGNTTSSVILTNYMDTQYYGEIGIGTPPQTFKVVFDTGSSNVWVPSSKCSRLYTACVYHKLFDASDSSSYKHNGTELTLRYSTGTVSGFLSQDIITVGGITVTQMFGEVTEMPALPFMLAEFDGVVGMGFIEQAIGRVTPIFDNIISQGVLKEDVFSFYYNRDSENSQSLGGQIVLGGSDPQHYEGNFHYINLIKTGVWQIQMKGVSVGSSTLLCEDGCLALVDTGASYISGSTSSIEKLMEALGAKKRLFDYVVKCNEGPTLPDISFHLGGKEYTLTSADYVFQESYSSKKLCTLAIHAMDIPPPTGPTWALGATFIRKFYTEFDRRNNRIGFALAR
protocol.summary: Inhibitory activity against human plasma renin
Format: cell-free
Overview of recorded IC50 for various compounds
Numeric answer only, unit nM assumed.

The following compounds have reported results that may help.
compound	endpoint.value
COc1ccccc1COCCCOc1ccc([C@H]2CCNC[C@@H]2OCc2ccc3ccc(=O)[nH]c3c2)cc1 (racemic)	110
c1ccc(COCCCOc2ccc([C@H]3[C@H](CSc4ccncc4)CNC[C@@H]3OCc3ccc4ccccc4c3)cc2)cc1 (racemic)	490

stdin: Indicate the recorded IC50 value for this compound: c1ccc(COCCCOc2ccc([C@H]3[C@H](COCCN4CCOCC4)CNC[C@@H]3OCc3ccc4ccccc4c3)cc2)cc1 (racemic)
stdout: 160

stdin: Please report IC50 for the following compound: O[C@@H]1CNC[C@H](OCc2ccc3ccccc3c2)[C@H]1c1ccc(OCCCOCc2ccccc2)cc1 (racemic)
stdout: 1400

* * *

# IC50 per record follows
tested.target: Renin (Homo sapiens, UniProt P00797)
Sequence (P00797 whole entry): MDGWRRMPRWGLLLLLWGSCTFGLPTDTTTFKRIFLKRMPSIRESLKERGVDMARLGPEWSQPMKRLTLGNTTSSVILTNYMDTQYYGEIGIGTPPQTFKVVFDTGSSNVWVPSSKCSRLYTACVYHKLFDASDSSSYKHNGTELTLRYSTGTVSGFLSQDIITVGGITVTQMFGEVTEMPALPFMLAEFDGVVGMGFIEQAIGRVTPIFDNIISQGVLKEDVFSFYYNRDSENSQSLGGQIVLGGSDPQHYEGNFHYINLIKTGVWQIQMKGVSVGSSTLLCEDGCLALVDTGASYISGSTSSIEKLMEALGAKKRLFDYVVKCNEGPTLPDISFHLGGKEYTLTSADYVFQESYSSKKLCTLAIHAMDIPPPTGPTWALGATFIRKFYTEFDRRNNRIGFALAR
protocol.summary: Inhibitory activity against human plasma renin
Assay type: cell-free
Give the figure together with its unit, number first.

molecule	tested.target	IC50
COc1ccccc1COCCCOc1ccc([C@H]2CCNC[C@@H]2OCc2cc(OC)c3ccccc3c2OC)cn1 (racemic)	Renin (Homo sapiens, UniProt P00797)	110 nM

stdin: Kindly indicate its recorded IC50. Item: c1ccc(COCCCOc2ccc([C@H]3CCNC[C@@H]3OCc3ccc4cc(OCCN5CCOCC5)ccc4c3)cc2)cc1 (racemic)
stdout: 1400 nM

stdin: Output measured IC50 for this item: O[C@H]1CNC[C@H](OCc2ccc3ccccc3c2)[C@H]1c1ccc(OCCCOCc2ccccc2)cc1 (racemic)
stdout: 10000 nM

stdin: Identify measured IC50 associated with c1ccc(COCCCOc2ncc([C@H]3CCNC[C@@H]3OCc3ccc4ccccc4c3)cn2)cc1 (racemic)
stdout: 8200 nM

stdin: Note IC50 for the molecule shown: c1ccc(COCCCOc2ccc([C@H]3CCNC[C@@H]3OCc3ccc4c(c3)NCCC4)cc2)cc1 (racemic)
stdout: 330 nM

stdin: State its IC50: COc1ccccc1COCCCOc1ccc([C@H]2CCNC[C@@H]2OCc2ccc3c(c2)NCCC3)cc1 (racemic)
stdout: 37 nM

stdin: Retrieve IC50 measured for c1ccc(COCCCOc2ccc([C@H]3CCNC[C@@H]3OCc3ccc4cccnc4c3)cc2)cc1 (racemic) and print it.
stdout: 810 nM

stdin: Give the measured IC50 for COc1ccccc1COCCCOc1ccc([C@H]2CCNC[C@@H]2OCc2cc(OC)c3ccccc3c2OC)cc1 (racemic)
stdout: 12 nM

The reported numbers originate from ChEMBL document CHEMBL1131714.
